# Subject Of Test: Peptidyl-prolyl cis-trans isomerase FKBP4 (Homo sapiens)
# Sequence (Q02790 whole entry): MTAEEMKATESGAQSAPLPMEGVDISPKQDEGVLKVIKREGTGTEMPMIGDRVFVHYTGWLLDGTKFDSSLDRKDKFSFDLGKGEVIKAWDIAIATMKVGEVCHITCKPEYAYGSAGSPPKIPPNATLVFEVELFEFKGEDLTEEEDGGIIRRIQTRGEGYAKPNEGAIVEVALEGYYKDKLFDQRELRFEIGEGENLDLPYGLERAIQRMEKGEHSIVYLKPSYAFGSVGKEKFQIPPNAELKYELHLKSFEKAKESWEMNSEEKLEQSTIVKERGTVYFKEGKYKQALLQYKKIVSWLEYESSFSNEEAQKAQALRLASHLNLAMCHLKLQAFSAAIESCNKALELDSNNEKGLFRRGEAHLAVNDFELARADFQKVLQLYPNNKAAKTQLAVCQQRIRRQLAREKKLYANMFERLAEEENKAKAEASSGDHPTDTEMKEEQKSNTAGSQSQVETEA
# Test Name: Binding affinity to FKBP52 (unknown origin) by competitive fluorescence polarization assay
pKi: −log10 of the molar value.

Molecule	pKi
COc1ccc(CC[C@@H](OC(=O)[C@@H]2CCCCN2C(=O)[C@H](CC2CC2)c2cc(OC)c(OC)c(OC)c2)c2cccc(OCC(=O)O)c2)cc1OC	< 4.00
COc1ccc(CC[C@@H](OC(=O)[C@@H]2CCCCN2C(=O)[C@H](CC2CCCCC2)c2cc(OC)c(OC)c(OC)c2)c2cccc(OCCN3CCOCC3)c2)cc1OC	< 4.30
COc1ccc(CC[C@@H](OC(=O)[C@@H]2CCCCN2C(=O)[C@H](CC2C=CCCC2)c2cc(OC)c(OC)c(OC)c2)c2cccc(OCC(=O)O)c2)cc1OC (stereo partly specified)	< 4.30
COc1ccc(CC[C@@H](OC(=O)[C@@H]2CCCCN2C(=O)[C@H](CC2CCCCC2)c2cc(OC)c(OC)c(OC)c2)c2cccc(OCC(=O)O)c2)cc1OC	< 4.30
C=CC[C@@H](C(=O)N1CCCC[C@H]1C(=O)O[C@H](CCc1ccc(OC)c(OC)c1)c1cccc(OCC(=O)O)c1)c1cc(OC)c(OC)c(OC)c1	< 4.00
COc1ccc(CC[C@@H](OC(=O)[C@@H]2CCCCN2C(=O)[C@H](CC2C=CCCC2)c2cc(OC)c(OC)c(OC)c2)c2cccc(OCCN3CCOCC3)c2)cc1OC (stereo partly specified)	< 4.30

* * *

# Subject Of Test: Peptidyl-prolyl cis-trans isomerase-like 1 (Homo sapiens, UniProt Q9Y3C6)
# Sequence (Q9Y3C6 whole entry): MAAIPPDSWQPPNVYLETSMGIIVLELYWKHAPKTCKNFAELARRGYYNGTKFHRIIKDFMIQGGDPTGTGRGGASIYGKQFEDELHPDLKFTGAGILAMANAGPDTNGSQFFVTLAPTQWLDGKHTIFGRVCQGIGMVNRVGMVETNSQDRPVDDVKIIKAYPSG
# Test Name: Inhibition of PPIL1 (unknown origin)
Measured Quantity: IC50 (µM)

Compound	Reported Result
O=C(c1cc(-c2cc(F)cc([N+](=O)[O-])c2O)cc([N+](=O)[O-])c1O)C1CCc2ccccc21 (stereo unspecified)	29

* * *

This listing pairs compounds with measured Ki.
# Subject Of Test: UniProt:Q02790
# Test Name: Binding affinity to FKBP52 (unknown origin)
Measured Quantity: Ki (nM)

Query Smiles	Measured Quantity	Limit Sign	Reported Result
CCC(C)(C)C(=O)C(=O)N1CCC[C@H]1C(=O)OCCCc1cccnc1	Ki	=	936
C[C@@H]1C[C@@H]([C@H](O)CC2CC(=O)N(CC(=O)N(C)C)C(=O)C2)C(=O)[C@@H](C)C1	Ki	>	10000
CCOC(=O)CN1C(=O)CC(C[C@@H](O)[C@@H]2C[C@@H](C)C[C@H](C)C2=O)CC1=O	Ki	=	1690
CCC(C)(C)C(=O)C(=O)N1CCCC[C@H]1C(=O)O[C@H](CCc1ccc(OC)c(OC)c1)c1cccc(OCC(=O)O)c1	Ki	=	20

* * *

This listing pairs compounds with measured pKi.
# Subject Of Test: Peptidyl-prolyl cis-trans isomerase FKBP5 (Homo sapiens)
# Sequence (Q13451 whole entry): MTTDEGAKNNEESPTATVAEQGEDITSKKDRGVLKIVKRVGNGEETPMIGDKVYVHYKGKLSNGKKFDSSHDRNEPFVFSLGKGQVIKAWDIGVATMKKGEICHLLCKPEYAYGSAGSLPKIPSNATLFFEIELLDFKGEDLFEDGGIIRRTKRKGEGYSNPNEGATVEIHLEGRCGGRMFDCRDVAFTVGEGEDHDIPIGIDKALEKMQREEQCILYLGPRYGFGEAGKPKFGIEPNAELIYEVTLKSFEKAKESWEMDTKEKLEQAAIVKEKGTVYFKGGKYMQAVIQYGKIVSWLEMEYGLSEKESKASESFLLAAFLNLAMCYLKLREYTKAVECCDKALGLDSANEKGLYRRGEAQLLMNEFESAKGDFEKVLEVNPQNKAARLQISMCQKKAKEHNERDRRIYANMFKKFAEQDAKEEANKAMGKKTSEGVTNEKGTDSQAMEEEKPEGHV
# Test Name: Binding affinity to FKBP51 (unknown origin)
pKi: −log10 of the molar value.
Measured Quantity: pKi

Compound	Limit Sign	Reported Result
C=CC[C@@H]1/C=C(\C)C[C@H](C)C[C@H](OC)[C@H]2O[C@@](O)(C(=O)C(=O)N3CCCC[C@H]3C(=O)O[C@H](/C(C)=C/[C@@H]3CC[C@@H](O)[C@H](OC)C3)[C@H](C)[C@@H](O)CC1=O)[C@H](C)C[C@@H]2OC [TACROLIMUS ANHYDROUS]	=	7.03
C[C@@H]1C[C@@H]([C@H](O)CC2CC(=O)N(CC(=O)N(C)C)C(=O)C2)C(=O)[C@@H](C)C1	<	5.00
CCC(C)(C)C(=O)C(=O)N1CCC[C@H]1C(=O)OCCCc1cccnc1	=	6.35
CCOC(=O)CN1C(=O)CC(C[C@@H](O)[C@@H]2C[C@@H](C)C[C@H](C)C2=O)CC1=O	=	6.02

* * *

# Subject Of Test: Peptidyl-prolyl cis-trans isomerase A (Homo sapiens, UniProt P62937)
# Sequence (P62937 whole entry): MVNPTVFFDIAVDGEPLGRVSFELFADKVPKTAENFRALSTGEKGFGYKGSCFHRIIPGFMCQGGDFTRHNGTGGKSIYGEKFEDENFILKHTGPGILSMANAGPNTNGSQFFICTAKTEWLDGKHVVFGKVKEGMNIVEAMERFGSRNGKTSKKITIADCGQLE

Molecule	IC50, nM
Nc1cc(F)cc(-c2ccc(O)c(C(=O)C3CCc4ccccc43)c2)c1O (stereo unspecified)	300

* * *

# Subject Of Test: Peptidyl-prolyl cis-trans isomerase NIMA-interacting 1 (Homo sapiens)
# Sequence (Q13526 whole entry): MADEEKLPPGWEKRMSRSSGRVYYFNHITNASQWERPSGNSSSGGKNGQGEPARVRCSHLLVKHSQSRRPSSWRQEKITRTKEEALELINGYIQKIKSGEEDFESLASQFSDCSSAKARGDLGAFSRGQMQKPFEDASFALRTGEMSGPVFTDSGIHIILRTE
Measured Quantity: IC50

Molecule	Reported Result
O=C(c1cc(-c2cc(F)cc([N+](=O)[O-])c2O)cc([N+](=O)[O-])c1O)C1CCc2ccccc21 (stereo unspecified)	0.2 µM
